Data credit: paper PMC5748279

- measurement_protocol: in vivo
- condition_summary: male, C57/BL6, mouse, iv, 5 mg/kg
test_readout: AUC(0-inf) at 24 h (µM·h)
Report the figure in µM·h without appending any unit label.

Task: Please give measured AUC(0-inf) at 24 h of the following entry: CN1CCN(c2ccc(NC(=O)c3cc(N(C)Cc4ccc(C(F)(F)F)cc4)ncn3)cc2)CC1
Result: 9

Task: Please give measured AUC(0-inf) at 24 h of the following entry: CN(Cc1ccc(F)cc1)c1cc(C(=O)Nc2nncs2)ncn1
Result: 22.1

Task: Please give measured AUC(0-inf) at 24 h of the following entry: CN(Cc1ccc(C(F)(F)F)nc1)c1cc(C(=O)Nc2nncs2)ncn1
Result: 35.1

Task: Please give measured AUC(0-inf) at 24 h of the following entry: CN(Cc1ccc(C(F)(F)F)cc1)c1cc(C(=O)Nc2ccccc2)ncn1
Result: 20.4

Task: Please give measured AUC(0-inf) at 24 h of the following entry: CN(Cc1ccc(C(F)(F)F)nc1)c1cc(C(=O)Nc2ccccc2)ncn1
Result: 19.6

====

- measurement_protocol: in vitro
- condition_summary: african green monkey; sheet table;; IC50 on Vero cells, MTT; read-out: Cytotoxicity (æM)
test_readout: CC50

Task: Please give measured CC50 of the following entry: CC(=O)N1CCN(c2ccc(NC(=O)c3cc(N(C)Cc4ccc(C(F)(F)F)nc4)ncn3)cn2)CC1
Result: > 50 µM

====

- measurement_protocol: in vivo
- condition_summary: male, C57/BL6, mouse, po, 20 mg/kg
test_readout: half-life
Put your answer as a value accompanied by its unit after it.

Task: Please give measured half-life of the following entry: CN(Cc1ccc(C(F)(F)F)nc1)c1cc(C(=O)Nc2nncs2)ncn1
Result: 3 h

====

- experimental_system: UniProtKB A0A1R3Y5K6
- measurement_protocol: biochemical
- Type: binding
- condition_summary: pIC50
test_readout: IC50

Task: Please give measured IC50 of the following entry: O=C(Nc1ccccc1)c1ccc(=O)n(Cc2ccc(F)cc2)c1
Result: ≥ 30.2 µM

====

- experimental_system: Mycobacterium bovis BCG extract proteins (Mycobacterium bovis BCG, UniProt A0A1R3Y6U4)
- Sequence (A0A1R3Y6U4 entry or part of it): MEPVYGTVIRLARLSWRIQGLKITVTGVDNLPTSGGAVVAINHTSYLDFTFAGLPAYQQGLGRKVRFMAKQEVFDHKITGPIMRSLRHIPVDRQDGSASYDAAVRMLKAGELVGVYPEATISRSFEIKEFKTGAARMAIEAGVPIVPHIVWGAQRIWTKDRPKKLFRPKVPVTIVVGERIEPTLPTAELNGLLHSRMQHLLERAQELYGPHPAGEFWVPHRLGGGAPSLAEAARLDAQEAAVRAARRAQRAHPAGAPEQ
- measurement_protocol: biochemical
- Assay type: binding
- condition_summary: IC50
pIC50: −log10 of the molar value.
test_readout: pIC50

Task: Please give measured pIC50 of the following entry: O=C(Nc1ccccc1)c1ccc(=O)n(Cc2ccc(F)cc2)c1
Result: ≤ 4.52

====

- experimental_system: BCG_3193 (Rv3169) (Mycobacterium bovis BCG)
- Sequence (A0A1R3Y3B6 1-374): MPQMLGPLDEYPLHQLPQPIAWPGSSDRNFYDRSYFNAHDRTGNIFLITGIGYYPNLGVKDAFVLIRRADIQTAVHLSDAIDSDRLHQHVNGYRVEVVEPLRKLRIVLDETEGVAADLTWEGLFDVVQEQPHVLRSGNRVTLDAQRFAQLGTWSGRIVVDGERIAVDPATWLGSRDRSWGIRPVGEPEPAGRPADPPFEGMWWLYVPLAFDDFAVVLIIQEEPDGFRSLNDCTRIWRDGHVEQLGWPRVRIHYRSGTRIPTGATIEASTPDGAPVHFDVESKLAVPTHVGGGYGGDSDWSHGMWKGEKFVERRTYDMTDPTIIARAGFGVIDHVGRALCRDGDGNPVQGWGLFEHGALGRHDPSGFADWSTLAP
- measurement_protocol: biochemical
- Design: species or system Mycobacterium bovis BCG extract
- condition_summary: IC50, Experiment ID=X028553; bead competition in BCG extract
test_readout: pIC50
Friendly reminder that pIC50 comes from taking -log10 of the concentration in mol/L.

Task: Please give measured pIC50 of the following entry: CN1CCN(c2ccc(NC(=O)c3cc(N(C)Cc4ccc(C(F)(F)F)cc4)ncn3)cc2)CC1
Result: 5.77

====

- measurement_protocol: physchem
- Type: physicochemical
- condition_summary: pH 7.4, pH 7.4
For each of the compounds below, state its solubility kinetic at 2 h.

Task: Please give measured solubility kinetic at 2 h of the following entry: CN(Cc1ccc(C(F)(F)F)nc1)c1cc(C(=O)Nc2nncs2)ncn1
Result: > 100 µM

Task: Please give measured solubility kinetic at 2 h of the following entry: CN(Cc1ccc(F)cc1)c1cc(C(=O)Nc2nncs2)ncn1
Result: > 100 µM
